experiment: in vitro; details: African green monkey, VeroE6 + CP (CC50), Vero E6-eGFP cells with CP-100356, absence of virus, MTS; numeric bounds
Measured CC50 accompanies every entry in the list below.

If you can, please state the reported CC50 value of COc1cccc2[nH]c(C(=O)N3C[C@@H]4CCC[C@@H]4[C@H]3C(=O)N[C@@H](C[C@@H]3CCNC3=O)C(=O)C(=O)N[C@@H]3CCOC3)cc12 [Compound 105] . > 100 µM

If you can, please state the reported CC50 value of O=C(NC1CC1)C(=O)[C@H](C[C@@H]1CCNC1=O)NC(=O)[C@@H]1CC2(CCN1C(=O)c1cc3c(C(F)(F)F)cccc3[nH]1)CC2 [Compound 170] . > 50 µM

If you can, please state the reported CC50 value of COc1cccc2[nH]c(C(=O)N3C[C@H]4[C@@H]([C@H]3C(=O)N[C@@H](C[C@@H]3CCCNC3=O)C(=O)CO)C4(C)C)cc12 [Compound 49] . > 100 µM

* * *

target: 3CLpro (Severe acute respiratory syndrome coronavirus 2, UniProt P0DTD1); assay: SARS-CoV-2 3CLpro protease assay (duplex, SAMDI-MS); type: biochemical; parameters: For the duplex assay, 3CLpro and HRV3C was added; details: 3CLpro, 30 mins preincubation, class symbols; read-out: SARS-Cov-2 IC50
MEASURE NAME: IC50

Observe how each entry below is paired with its result.
MOLECULE	SYSTEM TESTED	IC50
COc1cccc2[nH]c(C(=O)N3C[C@@H]4CCC[C@@H]4[C@H]3C(=O)N[C@@H](CC3CC(C)(C)NC3=O)C(=O)CO)cc12 (relative stereo) [Compound 70_1]	3CLpro (Severe acute respiratory syndrome coronavirus 2, UniProt P0DTD1)	< 0.02 µM
COc1nccc2[nH]c(C(=O)N3C[C@@H]4CCC[C@@H]4[C@H]3C(=O)N[C@H](C#N)C[C@@H]3CCNC3=O)cc12 [Compound 191]	3CLpro (Severe acute respiratory syndrome coronavirus 2, UniProt P0DTD1)	0.2 to 2 µM
COc1cccc2[nH]c(C(=O)N3C[C@@H]4CCC[C@@H]4[C@H]3C(=O)N[C@@H](C[C@@H]3CCNC3=O)C(=O)c3nc4ccccc4s3)cc12 [Compound 50]	3CLpro (Severe acute respiratory syndrome coronavirus 2, UniProt P0DTD1)	0.02 to 0.2 µM
N#C[C@H](C[C@@H]1CCNC1=O)NC(=O)[C@@H]1[C@H]2CCC[C@H]2CN1C(=O)c1cc2c(Cl)cc(F)cc2[nH]1 [Compound 187]	3CLpro (Severe acute respiratory syndrome coronavirus 2, UniProt P0DTD1)	0.2 to 2 µM
COc1cccc2[nH]c(C(=O)N3C[C@@H]4CCC[C@@H]4[C@H]3C(=O)N[C@@H](C[C@@H]3CCNC3=O)C(=O)CO)c(F)c12 [Compound 151]	3CLpro (Severe acute respiratory syndrome coronavirus 2, UniProt P0DTD1)	0.02 to 0.2 µM
C=C[C@@H]1C[C@@H](C(=O)N[C@@H](C[C@@H]2CCNC2=O)C(=O)C(=O)NCc2ccccc2)N(C(=O)c2cc3ccccc3[nH]2)C1 [Compound 30]	3CLpro (Severe acute respiratory syndrome coronavirus 2, UniProt P0DTD1)	0.02 to 0.2 µM
CC1(C)[C@@H]2[C@@H](C(=O)N[C@@H](C[C@@H]3CCNC3=O)C(=O)CO)N(C(=O)c3cc4c(Cl)cc(Cl)cc4[nH]3)C[C@@H]21 [Compound 127]	3CLpro (Severe acute respiratory syndrome coronavirus 2, UniProt P0DTD1)	0.02 to 0.2 µM
COc1cc(Cl)c(Cl)c2[nH]c(C(=O)N3C[C@@H]4CCC[C@@H]4[C@H]3C(=O)N[C@@H](C[C@@H]3CCNC3=O)C(=O)CO)cc12 [Compound 158]	3CLpro (Severe acute respiratory syndrome coronavirus 2, UniProt P0DTD1)	< 0.02 µM
O=C1NCC[C@H]1C[C@H](NC(=O)[C@@H]1[C@H]2CCC[C@H]2CN1C(=O)c1cc2c(OC(F)(F)F)cccc2[nH]1)C(=O)CO [Compound 64]	3CLpro (Severe acute respiratory syndrome coronavirus 2, UniProt P0DTD1)	0.02 to 0.2 µM
COc1cccc2[nH]c(C(=O)N3C[C@H]4[C@@H]([C@H]3C(=O)N[C@@H](C[C@@H]3CCNC3=O)C(=O)CO)C4(C)C)cc12 [Compound 43]	3CLpro (Severe acute respiratory syndrome coronavirus 2, UniProt P0DTD1)	0.02 to 0.2 µM

Form entry - test system: 3CLpro (Severe acute respiratory syndrome coronavirus 2, UniProt P0DTD1); read-out: IC50; molecule: COc1cccc2[nH]c(C(=O)N3C[C@@H]4CCC[C@@H]4[C@H]3C(=O)N[C@@H](C[C@@H]3CCNC3=O)C(=O)C(=O)NCCOc3ccccc3)cc12 [Compound 134] < 0.02 µM

Form entry - test system: 3CLpro (Severe acute respiratory syndrome coronavirus 2, UniProt P0DTD1); read-out: IC50; molecule: O=C(NCc1ccccc1)C(=O)[C@H](C[C@@H]1CCNC1=O)NC(=O)[C@@H]1C[C@]2(CN1C(=O)c1cc3ccccc3[nH]1)CC2(F)F [Compound 22] 0.2 to 2 µM
